Hello, the source for this data is paper PMC5564600, in case you need it.

SYSTEM NAME: panel of 442 kinases (Homo sapiens)
Construct: purchased Ambit Biosciences (scanMAXX KINOMEscan)
Sequence (Q9UQ88 whole entry): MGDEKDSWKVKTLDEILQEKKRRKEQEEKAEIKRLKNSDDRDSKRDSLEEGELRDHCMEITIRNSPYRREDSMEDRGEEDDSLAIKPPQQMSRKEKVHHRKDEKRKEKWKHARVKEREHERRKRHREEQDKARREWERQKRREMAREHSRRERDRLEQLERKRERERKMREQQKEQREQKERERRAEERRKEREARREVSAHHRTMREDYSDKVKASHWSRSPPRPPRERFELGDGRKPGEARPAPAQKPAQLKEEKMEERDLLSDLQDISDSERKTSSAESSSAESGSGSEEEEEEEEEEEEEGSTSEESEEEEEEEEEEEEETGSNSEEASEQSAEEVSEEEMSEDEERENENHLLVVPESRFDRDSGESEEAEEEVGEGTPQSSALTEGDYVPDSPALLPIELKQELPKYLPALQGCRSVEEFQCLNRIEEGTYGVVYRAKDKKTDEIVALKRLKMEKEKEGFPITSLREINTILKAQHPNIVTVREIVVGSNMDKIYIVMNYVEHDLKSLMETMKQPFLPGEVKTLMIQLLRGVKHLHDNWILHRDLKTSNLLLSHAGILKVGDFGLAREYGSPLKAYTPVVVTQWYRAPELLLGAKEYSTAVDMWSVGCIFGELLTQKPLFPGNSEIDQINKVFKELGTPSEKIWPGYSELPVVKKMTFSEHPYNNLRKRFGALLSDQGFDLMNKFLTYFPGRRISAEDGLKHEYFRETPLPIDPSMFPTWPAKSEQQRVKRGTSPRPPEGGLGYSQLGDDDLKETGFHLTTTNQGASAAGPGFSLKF
MEASUREMENT DESCRIPTION: biochemical
Type: binding
RUN PARAMETERS: CDC2L2; 1 µM; read-out: % of control at 1 µM
MEASUREMENT NAME: remaining activity at 1 µM (%)

* Nc1cc(C(F)(F)F)c(-c2cc(N3CCOCC3)nc(N3CCOCC3)n2)cn1 | 100
* COc1ncc(-c2ccc3nccc(-c4ccnnc4)c3c2)cc1NS(=O)(=O)c1ccc(F)cc1F | 100
* Cn1c(=O)n(-c2ccc(C(C)(C)C#N)cc2)c2c3cc(-c4cnc5ccccc5c4)ccc3ncc21 | 89
* FC(F)c1nc2ccccc2n1-c1nc(N2CCOCC2)nc(N2CCOCC2)n1 | 100
